# measured_on: T1, canine NGF tagged at the C-terminus with the Flag tag (canine, UniProt A0A8I3PYI3 122-241)
# T1 construct: mature; 'mature' rests on the words 'processed form'; also called feline NGF (processed form identical)
# procedure_text: SPR, Biacore T200; antibody captured on anti-feline CM5 chip, NGF as analyte; 1:1 model
test_readout: log10(Kd) (log10 of the value in pM)

[
  {
    "binder": "SC-184_110-Arg (antibody, V domains shown, SC-184_110 containing the G55R mutation in VH; feline antibody captured on an anti-feline chip) VH: DVQLVESGGDLVKPGGSLRLTCVASGLSLTSASMSWVRQAPGKGLQWVSTIYSNRGTYYTDSVKGRFTISKDNAENTLYLQMNNLKTEDTATYYCASIYYYEAEYLHWYFDFWGQGALVTVSS VL: EIQMTQSPTSLSASVGDRVTITCRASEGISKNLSWYQQTPGKAPKLLIYATDNLHSGVPSRFSGSGSGTDFTLTISSLQPEDFATYYCQQGWKWPLTFGGGTKLEIT",
    "log10(Kd)": 2.15
  },
  {
    "binder": "felinized clone 101 (antibody, V domains shown) VH: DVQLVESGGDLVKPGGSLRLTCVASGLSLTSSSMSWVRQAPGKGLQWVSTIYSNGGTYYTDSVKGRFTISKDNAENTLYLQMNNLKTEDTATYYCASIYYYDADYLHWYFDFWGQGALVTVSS VL: EIQMTQSPTSLSASVGDRVTITCRASEGISNNLSWYQQTPGKAPKLLIYATSNLHSGVPSRFSGSGSGTDFTLTISSLQPEDFATYYCQQGYKWPLTFGGGTKLEIT",
    "log10(Kd)": 3.24
  },
  {
    "binder": "SC-184_76 (antibody, IgG1a, V domains shown) VH: DVQLVESGGDLVKPGGSLRLTCVASGLSLTSDSMSWVRQAPGKGLQWVSTLWSNGGTYYTDSVKGRFTISKDNAENTLYLQMNNLKTEDTATYYCASIYYYEADYLHWYFDFWGQGALVTVSS VL: EIQMTQSPTSLSASVGDRVTITCRASEGIANNLSWYQQTPGKAPKLLIYATSNLHSGVPSRFSGSGSGTDFTLTISSLQPEDFATYYCQQGFKWPLTFGGGTKLEIT",
    "log10(Kd)": 2.67
  },
  {
    "binder": "SC-184_102 (antibody, IgG1a, V domains shown, also called SC-102) VH: DVQLVESGGDLVKPGGSLRLTCVASGLSLTSNSMSWVRQAPGKGLQWVSTIWSNGGTYYTDSVKGRFTISKDNAENTLYLQMNNLKTEDTATYYCASIYYYEAEYLHWYFDFWGQGALVTVSS VL: EIQMTQSPTSLSASVGDRVTITCRASKGISNNLSWYQQTPGKAPKLLIYAQSNLHSGVPSRFSGSGSGTDFTLTISSLQPEDFATYYCQQGYKWPLTFGGGTKLEIT",
    "log10(Kd)": 2.62
  },
  {
    "binder": "SC-184_102-Arg (antibody, V domains shown, SC-184_102 containing the G55R mutation in VH; feline antibody captured on an anti-feline chip) VH: DVQLVESGGDLVKPGGSLRLTCVASGLSLTSNSMSWVRQAPGKGLQWVSTIWSNRGTYYTDSVKGRFTISKDNAENTLYLQMNNLKTEDTATYYCASIYYYEAEYLHWYFDFWGQGALVTVSS VL: EIQMTQSPTSLSASVGDRVTITCRASKGISNNLSWYQQTPGKAPKLLIYAQSNLHSGVPSRFSGSGSGTDFTLTISSLQPEDFATYYCQQGYKWPLTFGGGTKLEIT",
    "log10(Kd)": 2.11
  },
  {
    "binder": "AHF17602 (antibody, V domains shown, also called AIF17602) VH: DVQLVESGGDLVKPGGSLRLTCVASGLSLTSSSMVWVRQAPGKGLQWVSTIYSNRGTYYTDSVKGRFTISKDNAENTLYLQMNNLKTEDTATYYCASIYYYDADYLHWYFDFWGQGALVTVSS VL: EIQMTQSPTSLSASVGDRVTITCRASEGIANNLSWYQQTPGKAPKLLIYATSNLHSGVPSRFSGSGSGTDFTLTISSLQPEDFATYYCQQGYKWPLTFGGGTKLEIT",
    "log10(Kd)": 2.21
  },
  {
    "binder": "SC-184_110 (antibody, IgG1a, V domains shown, also called SC-110) VH: DVQLVESGGDLVKPGGSLRLTCVASGLSLTSASMSWVRQAPGKGLQWVSTIYSNGGTYYTDSVKGRFTISKDNAENTLYLQMNNLKTEDTATYYCASIYYYEAEYLHWYFDFWGQGALVTVSS VL: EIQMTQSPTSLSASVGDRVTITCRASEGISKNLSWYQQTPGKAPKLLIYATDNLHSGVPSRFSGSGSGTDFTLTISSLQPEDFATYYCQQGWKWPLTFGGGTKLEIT",
    "log10(Kd)": 2.89
  },
  {
    "binder": "SC-184_76-Arg (antibody, V domains shown, SC-184_76 containing the G55R mutation in VH; feline antibody captured on an anti-feline chip) VH: DVQLVESGGDLVKPGGSLRLTCVASGLSLTSDSMSWVRQAPGKGLQWVSTLWSNRGTYYTDSVKGRFTISKDNAENTLYLQMNNLKTEDTATYYCASIYYYEADYLHWYFDFWGQGALVTVSS VL: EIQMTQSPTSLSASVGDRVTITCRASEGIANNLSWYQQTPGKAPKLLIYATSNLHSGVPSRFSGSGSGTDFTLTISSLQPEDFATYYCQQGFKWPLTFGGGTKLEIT",
    "log10(Kd)": 2.19
  }
]
